Would you kindly list pKd for each of these binders?
Subject Of Test: CYP33 RRM domain (T3-K83), wild type (human, UniProt Q9UNP9 3-83)
Sequence (Q9UNP9 3-83): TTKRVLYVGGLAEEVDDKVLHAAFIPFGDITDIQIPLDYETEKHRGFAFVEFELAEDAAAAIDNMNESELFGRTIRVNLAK
Test Protocol: ITC
Numbers only, as −log10 of the molar value.

MLL PHD3 W1594A mutant (domain or fragment, human, UniProt Q03164 1564-1628, looked up) AKGNFCPLCDKCYDDDDYESKMMQCGKCDRAVHSKCENLSDEMYEILSNLPESVAYTCVNCTERH :: 4.71

Now consider the entry below.
## Task For the binder shown here, MLL PHD3 (third PHD finger of MLL), wild type (domain or fragment, human, UniProt Q03164 1564-1628, looked up) AKGNFCPLCDKCYDDDDYESKMMQCGKCDRWVHSKCENLSDEMYEILSNLPESVAYTCVNCTERH , give the reported pKd.
## Result 4.83
